Exercise: for every item that follows, state its recorded EC50.
molecular target: CHO-CHOP luciferase reporter, UPR activation, luminescence; experiment: CHOP reporter induction, apoptotic UPR branch – CHO-CHOP cells, luciferase luminescence, confirmation (AID 489024);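 also: compounds added alone to reporter cells with no tunicamycin stress co-treatment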

# input So what's the measured EC50 for this one? "S=C1SCN(CCN2CCOCC2)CN1Cc1ccccc1"
# output 10.8 µM

# input Note, next up: "O=[N+]([O-])c1cc(-c2ncccn2)c([N+](=O)[O-])s1"
# output 7.51 µM

# input Note, next up: "CN1CCN(Cc2cc(COCc3ccccc3)c3cccnc3c2O)CC1"
# output 12.8 µM

# input Note, next up: "CCn1c(-c2ccccc2)c(C(=O)CCl)c2ccccc21"
# output 8.47 µM

* * *

molecular target: CHO-CHOP luciferase reporter, UPR activation, luminescence; assay: CHOP reporter induction, apoptotic UPR branch – CHO-CHOP cells, luciferase luminescence, confirmation (AID 489024);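 also: compounds added alone to reporter cells with no tunicamycin stress co-treatment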
Calls of active or inactive are those of the source.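 Rule for the calls: active = compounds whose mean EC50, the dose giving half the maximal reporter activation, is at or below a set limit; inactive = the rest.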
endpoint.label: EC50

Guide cases for EC50, answers given:
compound: COc1cc(/C=C/C(=O)N2C(=O)c3cccc(N)c3C2=O)cc(OC)c1OC
endpoint.label: EC50
result: > 80 µM (inactive)
--
compound: CN(C)CC(C(=O)c1ccccc1)c1ccccc1 (stereo unspecified)
endpoint.label: EC50
result: 6.77 µM
--
compound: Cc1cc(C(=O)CCl)c(C)n1CCc1ccc(F)cc1
endpoint.label: EC50
result: 7.77 µM
--
compound: CN(C)CC(CCC(CN(C)C)C(O)(c1ccccc1)c1ccccc1)C(O)(c1ccccc1)c1ccccc1 (stereo unspecified)
endpoint.label: EC50
result: 7.9 µM
--
compound: COc1ccccc1-c1cc(C(F)(F)F)nc(S(C)(=O)=O)n1
endpoint.label: EC50
result: 9.21 µM

# input So what's the measured EC50 for this one? "COc1ccc(C2=CC(=O)N(Nc3ccccc3)C2=O)cc1"
# output 13.5 µM

# input Note, next up: "Cc1ccc(N2C(=O)NC(=O)/C(=C/c3cnn(-c4ccc(C)cc4)c3)C2=O)cc1"
# output 16.9 µM

# input Note, next up: "COc1cc(/C=C2\C(=O)ON=C2c2ccc(Cl)cc2)ccc1O"
# output 11.8 µM

# input Note, next up: "O=C(Nc1nc2ccc(F)cc2s1)c1ccccn1"
# output 7.16 µM

# input Note, next up: "O=C(CCl)Nc1ccc(-c2ccccc2)cc1"
# output > 80 µM (inactive)

# input Note, next up: "CCOc1cc(/C=N/Nc2cc(C)nc(-n3nc(C)cc3C)n2)ccc1O"
# output 13.6 µM

* * *

target: CHO-CHOP luciferase reporter, UPR activation, luminescence; assay: CHOP reporter induction, apoptotic UPR branch – CHO-CHOP cells, luciferase luminescence, confirmation (AID 489024);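 also: compounds added alone to reporter cells with no tunicamycin stress co-treatment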
endpoint.label: EC50

# input So what's the measured EC50 for this one? "Cc1cnc(NC(=O)c2cc(S(=O)(=O)N(C)C)ccc2N2CCCC2)s1"
# output 6.42 µM

# input Note, next up: "CSc1nnc(NC(=O)c2nc(S(=O)(=O)Cc3ccc(C)cc3)ncc2Cl)s1"
# output 13.6 µM

# input Note, next up: "O=C(/C(=C/c1ccc(Cl)cc1)c1nc2ccccc2[nH]1)c1ccccc1"
# output 6.57 µM

# input Note, next up: "COc1ccc(-c2nc(-c3ccccc3)nc(Cl)c2C#N)cc1"
# output 13.5 µM
